This collection of values is drawn from paper PMC9482650.

Target: T1, PDZD7_3, Q9H5P4
T1 sequence (Q9H5P4 857-944, limits assumed, looked up): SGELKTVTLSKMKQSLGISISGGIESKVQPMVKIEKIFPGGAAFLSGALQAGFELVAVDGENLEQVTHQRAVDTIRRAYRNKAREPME
Assay: holdup assay
Set-up: key: below the threshold = too weak to quantify, mostly under pKd 3.1 to 4
Details: plain residues with an end cap or a label only (N-terminal biotin on a linker: ado-ado)
Observation Type: pKd
One number for each entry.

Each binder below has a recorded value; state its pKd.
1. ARESQKVSHV [FAM110B, Q8TC76]
2. TRKRSGEAAV [PFKM, P08237]
3. RSSGGDDFWF [KCNV1, Q6PIU1]
4. NTLNRKTTPV [CACNG8, Q8WXS5]
5. LKDDELKTKL [SLCO1A2, P46721]

## Output
4.63
3.88
3.92
4.56
4.43

## Input Could you share which pKd value was measured for RDPPAEWTRV [PTPN18, Q99952] ?
## Output 4.83
